Sourced from patent US20260234139A1

molecular target: 15-PGDH/HPGD (Homo sapiens, UniProt P15428); construct: purchased R&D System 5660-DH; assay: hPGDH inhibitor screening biochemical assay; settings: 10 nM enzyme, 15 μM Prostaglandin E2, 0.25 mM NAD, fluorescence ex/em 340/485 nm
pIC50: −log10 of the molar value.
We begin with a simple list: items and their reported pIC50.

| COMPOUND | pIC50 |
| --- | --- |
| C[C@H](OC1CCC1)[C@H](O)c1cnc2c(cnn2-c2ccc(C(=O)O)cc2)c1 [Compound 108C] | 6.00 to 7.00 |
| CC(C)NC[C@H](O)c1cnc2c(cnn2-c2cccc(-c3nnc[nH]3)c2)c1 [Compound 27A] | ≤ 6.00 |
| NC(=O)c1ccc(-n2ncc3cc([C@H](O)COC4CCC4)cnc32)cc1 [Compound 81A] | > 7.00 |
| CC(C)OC[C@H](O)c1cnc2c(ccn2-c2cccc(-c3nnc[nH]3)c2)c1 [Compound 29A] | > 7.00 |

====

Molecular target: 15-PGDH/HPGD (Homo sapiens, UniProt P15428)
Sequence (P15428 1-266): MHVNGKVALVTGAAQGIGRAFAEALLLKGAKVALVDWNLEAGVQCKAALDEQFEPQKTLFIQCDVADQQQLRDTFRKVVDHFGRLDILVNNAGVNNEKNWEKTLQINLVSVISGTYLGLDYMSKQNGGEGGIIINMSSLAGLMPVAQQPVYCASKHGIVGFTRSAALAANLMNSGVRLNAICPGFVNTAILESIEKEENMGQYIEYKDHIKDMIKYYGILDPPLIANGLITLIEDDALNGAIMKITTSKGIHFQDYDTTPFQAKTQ
Assay: hPGDH inhibitor screening biochemical assay
Settings: 10 nM enzyme, 15 μM Prostaglandin E2, 0.25 mM NAD, fluorescence ex/em 340/485 nm
pIC50: −log10 of the molar value.

| MOLECULE | pIC50 |
| --- | --- |
| CCOC[C@H](O)c1cnc2c(cnn2-c2cccc(-c3nnc[nH]3)c2)c1 [Compound 23A] | > 7.00 |
| COC(C)(C)C[C@@H](O)c1cnc2c(ccn2-c2cccc(-c3nnc[nH]3)c2)c1 [Compound 54A] | > 7.00 |
| CC(C)(C)OC[C@@H](O)c1cnc2c(ccn2-c2cccc(-c3nnc[nH]3)c2)n1 [Compound 26B] | > 7.00 |
| CC(C)OC[C@@H](O)c1cnc2c(cnn2-c2ccc3nc(N4CCOCC4)nn3c2)c1 [Compound 60A] | > 7.00 |
| O[C@H](c1cnc2c(ccn2-c2cccc(-c3nnc[nH]3)c2)c1)C1CCC1 [Compound 10A] | > 7.00 |
| O[C@H](c1cnc2c(cnn2-c2cccc(-c3nnc[nH]3)c2)c1)[C@@H]1CCOC1 [Compound 68D] | > 7.00 |
| CC(O)(c1cnc2c(ccn2-c2cccc(-c3nnc[nH]3)c2)c1)C1CCCC1 (single isomer, unassigned) [Compound 11B] | ≤ 6.00 |
| O=C(O)c1ccc(-n2ncc3cc([C@H](O)COC4CCCC4)cnc32)cc1 [Compound 89B] | > 7.00 |
| COCCNC(=O)c1ccc(-n2ncc3cc([C@H](O)COC4CCC4)cnc32)cc1 [Compound 118B] | 6.00 to 7.00 |
| O=C(O)c1ccc(-n2ncc3cc([C@H](O)COC4(C(F)(F)F)CCC4)cnc32)cc1 [Compound 115B] | > 7.00 |
| CN(C)C[C@@H](O)c1cnc2c(cnn2-c2cccc(-c3nnc[nH]3)c2)c1 [Compound 25B] | 6.00 to 7.00 |
| CC(C)(C)OC[C@H](O)c1cnc2c(cnn2-c2cccc(-c3nnc[nH]3)c2)c1 [Compound 32A] | > 7.00 |
| CCCCC(C)(O)c1cnc2c(ccn2-c2cc(Cl)cc(-c3nnc[nH]3)c2)c1 (stereo not shown) | 6.00 to 7.00 |
